Test system: kinases
Assay: KINOMEscan kinase binding assay (Eurofins/DiscoveRx), % Ctrl
Settings: 1 μM; FLT3(ITD, F691L)
Procedure: Kinase binding assays were performed at Eurofins/DiscoveRx using the general KINOMEscan Protocol (Fabian, M. A. et al., “A small molecule-kinase interaction map for clinical kinase inhibitors,” Nat. Biotechnol. 2005, 23(3):329-36). For most assays, kinase-tagged T7 phage strains were prepared in an E. coli host derived from the BL21 strain. […] The kinase concentration in the eluates was measured by qPCR. […]
Property Measured: % Ctrl, FLT3(ITD, F691L) (% Ctrl)

Sample records with % Ctrl, FLT3(ITD, F691L):
[
  {
    "Input Smiles": "Cc1cc2c([nH]1)/C=C1\\C(=O)Nc3ccc(cc31)O[C@@H](C)COCCN(C)C2=O",
    "Test Result": 9.2
  },
  {
    "Input Smiles": "Cc1cc2c([nH]1)/C=C1\\C(=O)Nc3ccc(cc31)-c1cnn(C)c1COCCN(C)C2=O",
    "Test Result": 0.65
  }
]

[a] Cc1cc2c([nH]1)/C=C1\C(=O)Nc3ccc(nc31)-c1ccccc1OCCCNC2=O
[b] Cc1cc2c([nH]1)/C=C1\C(=O)Nc3cc(Cl)c(cc31)OCCO[C@@H](C(=O)N[C@@H]1CCNC1)CN(C)C2=O
Exam item: Parameter check: reported % Ctrl, FLT3(ITD, F691L) is higher for which label, a or b ? Returns: label corresponding to the selected item.
Marked response: a
(a: 100 % Ctrl, b: 5.7 % Ctrl)
